Target: Albumin (Homo sapiens)
Sequence (P02768 whole entry): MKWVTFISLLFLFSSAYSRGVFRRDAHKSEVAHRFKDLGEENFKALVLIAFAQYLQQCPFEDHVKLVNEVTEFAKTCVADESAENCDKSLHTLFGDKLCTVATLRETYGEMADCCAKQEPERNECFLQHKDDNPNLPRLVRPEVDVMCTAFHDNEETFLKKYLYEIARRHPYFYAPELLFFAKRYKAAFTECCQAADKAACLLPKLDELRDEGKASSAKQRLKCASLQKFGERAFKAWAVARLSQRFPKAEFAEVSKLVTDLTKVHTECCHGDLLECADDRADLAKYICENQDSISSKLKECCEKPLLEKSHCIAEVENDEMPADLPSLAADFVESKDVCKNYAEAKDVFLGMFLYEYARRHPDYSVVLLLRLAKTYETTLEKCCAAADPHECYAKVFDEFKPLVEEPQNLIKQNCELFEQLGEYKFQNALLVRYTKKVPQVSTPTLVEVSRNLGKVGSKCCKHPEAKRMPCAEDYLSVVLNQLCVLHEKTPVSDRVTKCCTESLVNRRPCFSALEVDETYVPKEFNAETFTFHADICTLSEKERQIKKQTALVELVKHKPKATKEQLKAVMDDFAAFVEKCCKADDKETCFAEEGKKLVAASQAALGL
Test: Binding affinity to HSA assessed as change in entropy at 298 K by Van't Hoff plot analysis
Assay type: ADME
Conditions: isolated protein
Measured Quantity: deltaS (J/mol·K)
Please give a number only; it is taken to be in J/mol·K.

Entry `Cc1ccc(-c2nc3ccccc3c(-c3c[nH]c4ccccc34)[n+]2[O-])cc1` , tested on Albumin (Homo sapiens), has a reported deltaS of 436
